- Tested on: clinical strains of C. quillermondiae
- ASSAY SUMMARY: MIC, clinical yeast strains, C. quillermondiae
- Type: cell-based
- MEASUREMENT SETUP: C. quillermondiae clinical yeast strain 1
Where a SMILES comes first, the peptide text is derived from it. [ ]: non-standard residue; d: D form.
Can you tell me Minimum inhibitory concentration for the items I'm about to list?
Give a plain numeric answer without units written out.

So for CC[C@@H](C)[C@@H](NC(=O)[C@@H](CC(C)C)NC(=O)[C@@H](CCCNC(=N)N)NC(=O)[C@H](N)CCCNC(=N)N)C(=O)N[C@H](Cc1c[nH]c2ccccc12)C(=O)N[C@H](CCCNC(=N)N)C(=O)N[C@H](CCCNC(=N)N)C(=O)N[C@H](Cc1ccccc1)C(=O)N[C@H](CCCCN)C(=O)N[C@H](Cc1c[nH]c2ccccc12)C(=O)N[C@H](CC(C)C)C(=O)N[C@H](CCCNC(=N)N)C(=O)O [Chain204D] (H-[dR][dR][dL][dI][dW][dR][dR][dF][dK][dW][dL][dR]-OH) , the logged Minimum inhibitory concentration turned out to be 4

So for CC(C)C[C@@H](NC(=O)[C@@H](Cc1c[nH]c2ccccc12)NC(=O)[C@@H](Cc1ccccc1)NC(=O)[C@@H](Cc1c[nH]c2ccccc12)NC(=O)[C@@H](CCCCN)NC(=O)[C@@H](CCCNC(=N)N)NC(=O)[C@H](N)Cc1c[nH]c2ccccc12)C(=O)N[C@H](Cc1ccccc1)C(=O)N[C@H](CCCCN)C(=O)N[C@H](CCCCN)C(=O)N[C@H](CCCNC(=N)N)C(=O)O [Chain309D] (H-[dW][dR][dK][dW][dF][dW][dL][dF][dK][dK][dR]-OH) , the logged Minimum inhibitory concentration turned out to be 8

The origin of these recorded values is patent US11096985B2.
